TESTED_ON: human emopamil binding protein and human 7-dehydrocholesterol reductase (hEBP-DHCR7) (Homo sapiens)
PROPERTY: Ki (nM)

compound="CC(C)n1nc(-c2cccc(C(F)(F)F)c2)cc1[C@H]1[C@@H]2C[C@H](N3CCC4(C3)CS(=O)(=O)C4)C[C@@H]21 (single isomer, unassigned) [Compound 1]" property=Ki val=13.1
compound="CCn1nc(-c2cccnc2)cc1[C@H]1[C@@H]2C[C@H](N3CCC4(C3)CS(=O)(=O)C4)C[C@@H]21 (single isomer, unassigned) [Compound 65*]" property=Ki val=51.9
compound="CCn1nc(-c2ccnc(C(F)(F)F)c2)cc1[C@H]1[C@@H]2C[C@H](N3CCC4(C3)CS(=O)(=O)C4)C[C@@H]21 [Compound 27]" property=Ki val=11.6
compound="CC(C)n1nc([C@H]2CC[C@H](C(F)(F)F)CC2)cc1[C@H]1[C@@H]2C[C@@H](N3CCC4(C3)CS(=O)(=O)C4)C[C@@H]21 (single isomer, unassigned) [Compound 107]" property=Ki val=16

P. CC(C)(C)n1nc(C(F)(F)F)cc1[C@H]1[C@@H]2C[C@@H](N3CCC4(C3)CS(=O)(=O)C4)C[C@@H]21 (single isomer, unassigned) [Compound 57]
Q. CC(C)n1nc(C2(C(F)(F)F)CC2)cc1[C@H]1[C@@H]2C[C@H](N3CCC4(C3)CS(=O)(=O)C4)C[C@@H]21 [Compound 32]
R. CCn1nc(-c2ccccn2)cc1[C@H]1[C@@H]2C[C@H](N3CCC4(C3)CS(=O)(=O)C4)C[C@@H]21 [Compound 73]
S. CCn1nc(-c2cncc(C(F)(F)F)c2)cc1[C@H]1[C@@H]2C[C@@H](N3CCC4(CC3)CS(=O)(=O)C4)C[C@@H]21 (single isomer, unassigned) [Compound 53*]
Hi! Can you put these in order of Ki, lowest number first? Give your ranking as a list of the labels in the requested order.
Q, P, R, S
(Q: 13.5 nM, P: 26 nM, R: 59.1 nM, S: 97.3 nM)

---

TESTED_ON: human emopamil binding protein and human 7-dehydrocholesterol reductase (hEBP-DHCR7) (Homo sapiens, UniProt Q15125)
Sequence (Q15125 whole entry): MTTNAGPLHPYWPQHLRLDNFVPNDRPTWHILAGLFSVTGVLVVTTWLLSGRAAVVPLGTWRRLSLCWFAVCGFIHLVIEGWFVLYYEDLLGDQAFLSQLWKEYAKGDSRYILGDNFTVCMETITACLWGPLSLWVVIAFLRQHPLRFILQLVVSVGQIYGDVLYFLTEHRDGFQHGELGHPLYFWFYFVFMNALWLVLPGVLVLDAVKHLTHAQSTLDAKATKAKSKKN
pKi: −log10 of the molar value.
PROPERTY: pKi

molecule=CC(C)n1nc(C2CCC(F)(F)CC2)cc1[C@H]1[C@@H]2C[C@@H](N3CCC4(C3)CS(=O)(=O)C4)C[C@@H]21 property=pKi val=7.67
molecule=CC(C)n1nc(-c2cnc(C(F)(F)F)nc2)cc1[C@H]1[C@@H]2C[C@H](N3CCC4(C3)CS(=O)(=O)C4)C[C@@H]21 property=pKi val=7.74
molecule="O=S1(=O)CC2(CCN([C@@H]3C[C@@H]4[C@H](C3)[C@H]4c3cc(C(F)(F)F)nn3CC(F)F)C2)C1 (single isomer, unassigned)" property=pKi val=7.15

I. CC(C)n1nc(-c2ccnc(C(F)(F)F)c2)cc1[C@H]1[C@@H]2C[C@H](N3CCC4(C3)CS(=O)(=O)C4)C[C@@H]21 (single isomer, unassigned)
II. CC(C)n1nc(-c2ccnc(C(F)(F)F)n2)cc1[C@H]1[C@@H]2C[C@H](N3CCC4(CC3)CS(=O)(=O)C4)C[C@@H]21 (single isomer, unassigned)
Given the listed items, does I or II have the lesser reported pKi? Provide the label of your selected option as the answer.
II
(II: 7.31, I: 8.02)

---

TESTED_ON: human emopamil binding protein and human 7-dehydrocholesterol reductase (hEBP-DHCR7) (Homo sapiens, UniProt Q15125)
pKi: −log10 of the molar value.
PROPERTY: pKi

compound="O=S1(=O)CC[C@@]2(CCCN([C@H]3C[C@@H]4[C@H](C3)[C@H]4c3cc(C(F)(F)F)nn3CC(F)F)C2)C1 (single isomer, unassigned)" val=7.72
compound=C=C(c1cc([C@H]2[C@@H]3C[C@H](N4CCC5(C4)CS(=O)(=O)C5)C[C@@H]32)n(C(C)C)n1)C(F)(F)F val=7.72
compound="CC(C)n1nc(-c2cncc(C(F)(F)F)c2)cc1[C@H]1[C@@H]2C[C@H](N3CC[C@]4(CCS(=O)(=O)C4)C3)C[C@@H]21 (single isomer, unassigned)" val=7.70

---

TESTED_ON: human emopamil binding protein and human 7-dehydrocholesterol reductase (hEBP-DHCR7) (Homo sapiens, UniProt Q15125)
PROPERTY: Ki (nM)

compound="CC(C)n1nc([C@H]2CC[C@@H](C(F)(F)F)CC2)cc1[C@H]1[C@@H]2C[C@@H](N3CCC4(C3)CS(=O)(=O)C4)C[C@@H]21 (single isomer, unassigned)" value_unit=nM val=13.1

P. CC(C)(C)n1nc(-c2cccc(C(F)(F)F)c2)nc1[C@H]1[C@@H]2C[C@@H](N3CCC4(C3)CS(=O)(=O)C4)C[C@@H]21 (single isomer, unassigned)
Q. CC(C)n1nc(-c2cncc(OC(F)F)c2)cc1[C@H]1[C@@H]2C[C@@H](N3CCC4(CC3)CS(=O)(=O)C4)C[C@@H]21 (single isomer, unassigned)
Which value of Ki is smaller, the one for P or the one for Q ? // caller expects the label of the chosen entry
P
(P: 14.9 nM, Q: 131 nM)

---

TESTED_ON: human emopamil binding protein and human 7-dehydrocholesterol reductase (hEBP-DHCR7) (Homo sapiens)
PROPERTY: Ki (nM)

compound="CC(C)n1nc(-c2cncc(C(F)(F)F)c2)cc1[C@H]1[C@@H]2C[C@@H](N3CCC4(CC3)CS(=O)(=O)C4)C[C@@H]21 (single isomer, unassigned) [Compound 38]" val=41
compound="CC(C)n1nc(-c2ccc(C(F)(F)F)cc2)cc1[C@H]1[C@@H]2C[C@H](N3CCC4(C3)CS(=O)(=O)C4)C[C@@H]21 [Compound 5]" val=43

I. CC(C)n1nc(-c2cncc(C(F)(F)F)c2)cc1[C@H]1[C@@H]2C[C@H](N3CC4(C3)CS(=O)(=O)C4)C[C@@H]21 (single isomer, unassigned) [Compound 99*]
II. CCn1nc(-c2cncc(C(F)(F)F)c2)cc1[C@H]1[C@@H]2C[C@H](N3CCC4(CC3)CS(=O)(=O)C4)C[C@@H]21 (single isomer, unassigned) [Compound 54*]
III. O=S1(=O)CC[C@]2(CCCN([C@H]3C[C@@H]4[C@H](C3)[C@H]4c3cc(C(F)(F)F)nn3CC(F)F)C2)C1 (single isomer, unassigned) [Compound 89*]
IV. CC(C)n1nc(C(F)(F)F)cc1[C@H]1[C@@H]2C[C@H](N3CCC4(C3)CS(=O)(=O)C4)C[C@@H]21 (single isomer, unassigned) [Compound 23]
Please put the entries in order of rising Ki. Submit the labels in the order that the ranking request calls for.
IV, II, I, III
(IV: 12.4 nM, II: 32.8 nM, I: 48 nM, III: 128 nM)

---

Tested on: EpiSC-derived OPCs
PROCEDURE_DETAILS: In vitro phenotypic screening of OPCs (MBP high-content imaging)
Type: cell-based
TEST_PARAMETERS: Mus musculus, 72 h; percentage of MBP-positive oligodendrocytes, 3 days, 0.5 nM to 1000 nM; read-out: OPC EC50
PROPERTY: EC50 (nM)

compound="CC(C)n1nc(-c2ccnc(C(F)(F)F)n2)cc1[C@H]1[C@@H]2C[C@H](N3CCC4(CC3)CS(=O)(=O)C4)C[C@@H]21 (single isomer, unassigned)" value_unit=nM val=69
compound="CC(C)n1nc(-c2ccc(C(F)(F)F)nc2)cc1[C@H]1[C@@H]2C[C@H](N3CCC4(C3)CS(=O)(=O)C4)C[C@@H]21 (single isomer, unassigned)" value_unit=nM val=2.9
compound="CC(C)n1nc(-c2ccnc(C(F)(F)F)n2)cc1[C@H]1[C@@H]2C[C@@H](N3CCC4(CC3)CS(=O)(=O)C4)C[C@@H]21 (single isomer, unassigned)" value_unit=nM val=4.6
compound="CCn1nc(-c2cncc(F)c2)cc1[C@H]1[C@@H]2C[C@@H](N3CCC4(C3)CS(=O)(=O)C4)C[C@@H]21 (single isomer, unassigned)" value_unit=nM val=60
compound=CC(C)n1nc(-c2cccc(C(F)(F)F)c2)nc1[C@H]1[C@@H]2C[C@H](N3CCC4(CC3)CS(=O)(=O)C4)C[C@@H]21 value_unit=nM val=13

A. CC(C)(C)n1nc(C(F)(F)F)cc1[C@H]1[C@@H]2C[C@@H](N3CCC4(C3)CS(=O)(=O)C4)C[C@@H]21 (single isomer, unassigned)
B. C=C(c1cc([C@H]2[C@@H]3C[C@H](N4CCC5(C4)CS(=O)(=O)C5)C[C@@H]32)n(C(C)C)n1)C(F)(F)F
Thinking about recorded EC50 values, which is higher, A or B ? Your answer should be the label attached to the chosen record.
B

A. CC(C)n1nc(-c2ccc(C(F)(F)F)nc2)cc1[C@H]1[C@@H]2C[C@@H](N3CCC4(C3)CS(=O)(=O)C4)C[C@@H]21 (single isomer, unassigned)
B. CC(C)n1nc(-c2cncc(C(F)(F)F)c2)cc1[C@H]1[C@@H]2C[C@@H](N3CC[C@]4(CCS(=O)(=O)C4)C3)C[C@@H]21 (single isomer, unassigned)
// compare measured EC50, left A , right B , return larger # respond with the chosen item's label
A

a. CC(C)n1nc(-c2cncc(C(F)(F)F)c2)cc1[C@H]1[C@@H]2C[C@H](N3CCC4(CC3)CS(=O)(=O)C4)C[C@@H]21 (single isomer, unassigned)
b. CC(C)n1nc(-c2cccc(C(F)(F)F)n2)cc1[C@H]1[C@@H]2C[C@@H](N3CCC4(CC3)CS(=O)(=O)C4)C[C@@H]21 (single isomer, unassigned)
Among a and b , which shows a numerically higher EC50 result? Answer by stating the label of the chosen item.
a
